# METHOD_SUMMARY: Three-period crossover relative bioavailability study of methotrexate injectable solutions (Vibex device SC vs needle and syringe SC and IM)
# Assay type: in vivo, human
# CONDITION_LABEL: human, plasma, sc, 25 mg, 25 mg single dose, subcutaneous with Vibex device
MEASUREMENT_LABEL: half-life

Q: What does the record list as half-life for CN(Cc1cnc2nc(N)nc(N)c2n1)c1ccc(C(=O)N[C@@H](CCC(=O)O)C(=O)O)cc1 [methotrexate] ?
Ans: ~3.78 h

---

# METHOD_SUMMARY: Three-period crossover relative bioavailability study of methotrexate injectable solutions (Vibex device SC vs needle and syringe SC and IM)
# Type: in vivo, human
# CONDITION_LABEL: human, plasma, sc, 15 mg, 15 mg single dose, subcutaneous with Vibex device, plasma; read-out: AUC(0-24)
# Experimental: This was a randomized, open-label, 3-way crossover study involving 36 subjects. […] One of six treatment sequences was possible as determined by the randomization schedule. […] Immediately following collection of each sample, each tube was gently inverted and placed in ice. […] The storage tubes were placed in a freezer at […] or below until they analyzed. […] Pharmacokinetic parameters were calculated from the individual concentrations of MTX using noncompartmental methods. […]
MEASUREMENT_LABEL: AUC(0-t)

Q: Look at this compound and give its reported AUC(0-t). CN(Cc1cnc2nc(N)nc(N)c2n1)c1ccc(C(=O)N[C@@H](CCC(=O)O)C(=O)O)cc1 [methotrexate]
Ans: ~1950 ng·h/mL
